Sourced from patent US20180327473A1

targetEntity: T1, human alpha fetoprotein (hAFP158) peptide on HLA-A2 (human)
T1 peptide: FMNKFIYEI
protocol: multimer staining
quantityKind: binding result

mTCR-6 (TCR, V domains shown) Valpha: QQKVQQSPESLIVPEGGMASLNCTSSDRNVDYFWWYRQHSGKSPKMLMSIFSNGEKEEGRFTVHLNKASLHTSLHIRDSQPSDSALYLCAASMINAYKVIFGKGTHLHVLP Vbeta: EAAVTQSPRNKVTVTGGNVTLSCRQTNSHNYMYWYRQDTGHGLRLIHYSYGAGNLQIGDVPDGYKATRTTQEDFFLLLELASPSQTSLYFCASSDAGVSQNTLYFGAGTRLSVL : recognises
mTCR-17 (TCR, V domains shown) Valpha: QQKVQQSPESLIVPEGGMASLNCTSSDRNVDYFWWYRQHSGKSPKMLMSIFSNGEKEEGRFTVHLNKASLHTSLHIRDSQPSDSALYLCAASMTGGYKVVFGSGTRLLVSP Vbeta: EAAVTQSPRNKVTVTGGNVTLSCRQTNSHNYMYWYRQDTGHGLRLIHYSYGAGNLQIGDVPDGYKATRTTQEDFFLLLELASPSQTSLYFCASSDAGTSQNTLYFGAGTRLSVL : recognises
mTCR-8 (TCR, V domains shown) Valpha: QQKVQQSPESLIVPEGGMASLNCTSSDRNVDYFWWYRQHSGKSPKMLMSIFSNGEKEEGRFTVHLNKASLHTSLHIRDSQPSDSALYLCAASISGGYKVVFGSGTRLLVSP Vbeta: EAAVTQSPRNKVTVTGGNVTLSCRQTNSHNYMYWYRQDTGHGLRLIHYSYGAGNLQIGDVPDGYKATRTTQEDFFLLLELASPSQTSLYFCASSDAGTSQNTLYFGAGTRLSVL : recognises
